Numbers sourced from patent US6756359B2.

- Tested on: S. pneumoniae Stpn_297-749 Pen R
- test_summary: Antibacterial activity in vitro, MIC by broth microdilution
- Format: cell-based, Streptococcus pneumoniae
- condition_info: Table 3, Strain ID F: S. pneumoniae Stpn_297-749 Pen R

molecule	MIC
CC[C@H]1OC(=O)[C@H](C)C(=O)[C@H](C)[C@@H](O[C@@H]2O[C@H](C)C[C@H](N(C)C)[C@H]2O)[C@@](C)(OC)C[C@@H](C)C(=O)[C@H](C)[C@@H]2[C@@H]1OC(=O)N2CCCCn1cnc(-c2ccccc2)c1 [Compound 4710]	≦0.5
CC[C@H]1OC(=O)[C@H](C)[C@@H](O[C@H]2C[C@@](C)(OC)[C@@H](O)[C@H](C)O2)[C@H](C)[C@@H](O[C@@H]2O[C@H](C)C[C@H](N(C)C)[C@H]2O)[C@](C)(OC)C[C@@H](C)C(=O)[C@H](C)[C@@H](O)[C@]1(C)O [Clar., clarithromycin, reference compound]	≦0.05
CC[C@H]1OC(=O)[C@H](C)C(=O)[C@H](C)[C@@H](O[C@@H]2O[C@H](C)C[C@H](N(C)C)[C@H]2O)[C@@](C)(OC)C[C@@H](C)C(=O)[C@H](C)[C@@H]2[C@@H]1OC(=O)N2CCCn1cnc(-c2ccccc2)c1	≦0.5
CC[C@H]1OC(=O)[C@H](C)C(=O)[C@H](C)[C@@H](O[C@@H]2O[C@H](C)C[C@H](N(C)C)[C@H]2O)[C@@](C)(OC)C[C@@H](C)C(=O)[C@H](C)[C@@H]2[C@@H]1OC(=O)N2CCCCc1ccnc2ccccc12 [Compound 6220]	≦0.05
CC[C@H]1OC(=O)[C@H](C)C(=O)[C@H](C)[C@@H](O[C@@H]2O[C@H](C)C[C@H](N(C)C)[C@H]2O)[C@@](C)(OC)C[C@@H](C)C(=O)[C@H](C)[C@H]2N(CCCCn3cnc(-c4ccccc4)c3)C(=O)O[C@]12CC	≦0.05
CC[C@H]1OC(=O)[C@H](C)C(=O)[C@H](C)[C@@H](O[C@@H]2O[C@H](C)C[C@H](N(C)C)[C@H]2O)[C@@](C)(OC)C[C@@H](C)C(=O)[C@H](C)[C@@H]2[C@@H]1OC(=O)N2CCCCn1cnc2ncccc21	≦0.5
CC[C@H]1OC(=O)[C@H](C)C(=O)[C@H](C)[C@@H](O[C@@H]2O[C@H](C)C[C@H](N(C)C)[C@H]2O)[C@@](C)(OC)C[C@@H](C)C(=O)[C@H](C)[C@@H]2[C@@H]1OC(=O)N2CCCCn1ccc2ccccc21	≦0.5
CC[C@H]1OC(=O)[C@H](C)C(=O)[C@H](C)[C@@H](O[C@@H]2O[C@H](C)C[C@H](N(C)C)[C@H]2O)[C@@](C)(OC)C[C@@H](C)C(=O)[C@H](C)[C@H]2N(CCCCn3cnc4ccccc43)C(=O)O[C@]12CC	≦0.05

* * *

- Tested on: S. pneumoniae Stpn_Erm 6849
- test_summary: Antibacterial activity in vitro, MIC by broth microdilution
- Assay type: cell-based, Streptococcus pneumoniae
- condition_info: Table 5, Strain ID I: S. pneumoniae Stpn_Erm 6849; unit assumed
# reported MIC; entries follow

compound	subject_of_test	MIC
CC[C@H]1OC(=O)[C@H](C)C(=O)[C@H](C)[C@@H](OC2O[C@H](C)C[C@H](N(C)C)[C@H]2O)[C@@](C)(OC)C[C@@H](C)C(=O)[C@H](C)[C@H]2N(CCCCn3cnc(-c4ccncc4)c3)C(=O)O[C@]12CC (stereo partly drawn)	S. pneumoniae Stpn_Erm 6849	> 50 µg/mL
CC[C@H]1OC(=O)[C@@](C)(F)C(=O)[C@H](C)[C@@H](OC2O[C@H](C)C[C@H](N(C)C)[C@H]2O)[C@@](C)(OC)C[C@@H](C)C(=O)[C@H](C)[C@H]2N(CCCCn3cnc(-c4ccc(C)nc4)c3)C(=O)O[C@]12CC (stereo partly drawn)	S. pneumoniae Stpn_Erm 6849	0.4 µg/mL
CC[C@H]1OC(=O)[C@@](C)(F)C(=O)[C@H](C)[C@@H](O[C@@H]2O[C@H](C)C[C@H](N(C)C)[C@H]2O)[C@@](C)(OC)C[C@@H](C)C(=O)[C@H](C)[C@H]2N(CCCC(C)(C)n3cnc4cccnc43)C(=O)O[C@]12CC	S. pneumoniae Stpn_Erm 6849	0.2 µg/mL
C=C[C@]12OC(=O)N(CCCCn3cnc(-c4cccnc4)c3)[C@@H]1[C@@H](C)C(=O)[C@H](C)C[C@@](C)(OC)[C@H](OC1O[C@H](C)C[C@H](N(C)C)[C@H]1O)[C@@H](C)C(=O)[C@@H](C)C(=O)O[C@@H]2CC (stereo partly drawn)	S. pneumoniae Stpn_Erm 6849	0.4 µg/mL
CC[C@H]1OC(=O)[C@H](C)C(=O)[C@H](C)[C@@H](OC2O[C@H](C)C[C@H](N(C)C)[C@H]2O)[C@@](C)(OC)C[C@@H](C)C(=O)[C@H](C)[C@H]2N(CCCCn3cnc(-c4ccc(C)nc4)c3)C(=O)O[C@]12CC (stereo partly drawn)	S. pneumoniae Stpn_Erm 6849	1.56 µg/mL
CC[C@H]1OC(=O)[C@H](C)C(=O)[C@H](C)[C@@H](OC2O[C@H](C)C[C@H](N(C)C)[C@H]2O)[C@@](C)(OC)C[C@@H](C)C(=O)[C@H](C)[C@H]2N(CCCCc3ccc4ccccc4n3)C(=O)O[C@]12CC (stereo partly drawn)	S. pneumoniae Stpn_Erm 6849	3.13 µg/mL
